biological target: SUMO-conjugating enzyme UBC9 (Homo sapiens) (UniProt P63279)
Sequence (P63279 whole entry, looked up): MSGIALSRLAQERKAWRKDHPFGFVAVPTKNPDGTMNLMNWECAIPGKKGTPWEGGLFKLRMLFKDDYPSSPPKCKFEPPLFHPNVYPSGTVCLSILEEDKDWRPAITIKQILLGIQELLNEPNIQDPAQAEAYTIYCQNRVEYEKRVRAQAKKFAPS
Give measured IC50 for each item. Keep answers brief.

Which value of IC50 has been reported for O=C(O)c1ccc(/C=N/NC(=O)c2ccc(CN3c4cccc5cccc(c45)S3(=O)=O)cc2)cc1 in the records?
11.1 µM

Which value of IC50 has been reported for O=C(CN1C(=O)S/C(=C\c2ccccc2)C1=O)NNC(=O)c1ccccc1O in the records?
37.9 µM

Which value of IC50 has been reported for NS(=O)(=O)c1ccc(NC(=O)c2ccc(-c3ccccc3)cc2)cc1 in the records?
13.8 µM

Which value of IC50 has been reported for O=C1NC(=Nc2ccc3ccccc3c2)S/C1=C/c1ccco1 in the records?
14 µM
